Study System: UniProt P0DMS8
Protocol: Displacement of [3H]PSB-11 from human adenosine A3 receptor expressed on CHO cell membranes assessed as association rate constant after 120 mins by scintillation spectrometry
So basically every entry gets a class from its K, ranges being low end: < 4 ×10⁵ /M/s; middle: ≥ 4 ×10⁵ /M/s and < 6 ×10⁵ /M/s; high end: ≥ 6 ×10⁵ /M/s

Would you please look over these solved cases?
COc1cccc(Cn2c(=O)n(CC3CC3)c(=O)c3c2nc2cc(OC)ccn23)c1 : middle
COc1ccn2c(c1)nc1c2c(=O)[nH]c(=O)n1Cc1ccccc1 : middle
CCCCCCCn1c(=O)c2c(nc3cc(OC)ccn32)n(Cc2ccccc2)c1=O : middle
COc1ccn2c(c1)nc1c2c(=O)n(CC2CC2)c(=O)n1Cc1ccc(Cl)c(Cl)c1 : low end
COCCn1c(=O)c2c(nc3cc(OC)ccn32)n(Cc2ccccc2)c1=O : middle

Inquiry: For the record COc1ccn2c(c1)nc1c2c(=O)n(CC(C)C)c(=O)n1Cc1ccccc1 , report the class its K corresponds to.
Reply text: high end

Inquiry: For the record COc1ccn2c(c1)nc1c2c(=O)n(CC(C)(C)C)c(=O)n1Cc1ccccc1 , report the class its K corresponds to.
Reply text: middle

Inquiry: For the record CCCn1c(=O)c2c(nc3cc(OC)ccn32)n(Cc2ccccc2)c1=O , report the class its K corresponds to.
Reply text: high end

Inquiry: For the record COc1ccn2c(c1)nc1c2c(=O)n(CC2CC2)c(=O)n1Cc1cccc(Cl)c1 , report the class its K corresponds to.
Reply text: high end

Inquiry: For the record COc1ccc(Cn2c(=O)n(CC3CC3)c(=O)c3c2nc2cc(OC)ccn23)cc1 , report the class its K corresponds to.
Reply text: middle

Inquiry: For the record CCCCCCn1c(=O)c2c(nc3cc(OC)ccn32)n(Cc2ccccc2)c1=O , report the class its K corresponds to.
Reply text: low end

* * *

Study System: Adenosine receptor A3 (Homo sapiens, UniProt P0DMS8)
Just a reminder that ties go to N: only Ki strictly below 3 nM counts as Y.

Would you please look over these solved cases?
CCCCn1c(=O)c2c(nc3cc(OC)ccn32)n(Cc2ccccc2)c1=O : Y
COc1ccn2c(c1)nc1c2c(=O)n(C[Si](C)(C)C)c(=O)n1Cc1ccccc1 : Y
CCc1ccc(Cn2c(=O)n(CC3CC3)c(=O)c3c2nc2cc(OC)ccn23)cc1 : Y
COc1ccn2c(c1)nc1c2c(=O)n(CC2CC2)c(=O)n1Cc1ccccc1 : Y
COc1ccn2c(c1)nc1c2c(=O)n(CC2CCC2)c(=O)n1Cc1ccccc1 : Y
COc1ccn2c(c1)nc1c2c(=O)n(CC2CC2)c(=O)n1Cc1ccc(Br)cc1 : Y

Inquiry: Input COc1ccn2c(c1)nc1c2c(=O)n(CCCO)c(=O)n1Cc1ccccc1 ; condition: Ki strictly below 3 nM. Does it hold?
Reply text: N

Inquiry: Input COCCn1c(=O)c2c(nc3cc(OC)ccn32)n(Cc2ccccc2)c1=O ; condition: Ki strictly below 3 nM. Does it hold?
Reply text: N

Inquiry: Input COc1ccn2c(c1)nc1c2c(=O)n(CC2CC2)c(=O)n1CCc1ccccc1 ; condition: Ki strictly below 3 nM. Does it hold?
Reply text: N

Inquiry: Input CCn1c(=O)c2c(nc3cc(OC)ccn32)n(Cc2ccccc2)c1=O ; condition: Ki strictly below 3 nM. Does it hold?
Reply text: N

Inquiry: Input CCCCCn1c(=O)c2c(nc3cc(OC)ccn32)n(Cc2ccccc2)c1=O ; condition: Ki strictly below 3 nM. Does it hold?
Reply text: N

Inquiry: Input COc1ccn2c(c1)nc1c2c(=O)n(CC(C)C)c(=O)n1Cc1ccccc1 ; condition: Ki strictly below 3 nM. Does it hold?
Reply text: Y

Inquiry: Input CCCn1c(=O)c2c(nc3cc(OC)ccn32)n(Cc2ccccc2)c1=O ; condition: Ki strictly below 3 nM. Does it hold?
Reply text: N

Inquiry: Input CCCCCCCn1c(=O)c2c(nc3cc(OC)ccn32)n(Cc2ccccc2)c1=O ; condition: Ki strictly below 3 nM. Does it hold?
Reply text: N

Inquiry: Input COc1ccn2c(c1)nc1c2c(=O)n(CCC(C)C)c(=O)n1Cc1ccccc1 ; condition: Ki strictly below 3 nM. Does it hold?
Reply text: N

Inquiry: Input COc1ccn2c(c1)nc1c2c(=O)[nH]c(=O)n1Cc1ccccc1 ; condition: Ki strictly below 3 nM. Does it hold?
Reply text: N

* * *

Would you mind telling me the reported K of each entry?
Study System: Adenosine receptor A3 (Homo sapiens)
Protocol: Displacement of [3H]PSB-11 from human adenosine A3 receptor expressed on CHO cell membranes assessed as dissociation rate constant after 120 mins by scintillation spectrometry
Answers are plain numbers, in ×10⁻⁵ /s.

Give K for all molecules that follow.
1. CCCCCCn1c(=O)c2c(nc3cc(OC)ccn32)n(Cc2ccccc2)c1=O
2. COc1cccc(Cn2c(=O)n(CC3CC3)c(=O)c3c2nc2cc(OC)ccn23)c1

Reply text:
1: 8.2; 2: 4.7

Give K for all molecules that follow.
1. COc1ccc(Cn2c(=O)n(CC3CC3)c(=O)c3c2nc2cc(OC)ccn23)cc1
2. CCCCCCCn1c(=O)c2c(nc3cc(OC)ccn32)n(Cc2ccccc2)c1=O
3. COc1ccn2c(c1)nc1c2c(=O)n(CC2CC2)c(=O)n1Cc1ccc(Cl)c(Cl)c1

Reply text:
1: 7.8; 2: 6.2; 3: 5.3

* * *

Would you mind telling me the reported K of each entry?
Study System: UniProt P0DMS8
Protocol: Displacement of [3H]PSB-11 from human adenosine A3 receptor expressed on CHO cell membranes assessed as dissociation rate constant after 120 mins by scintillation spectrometry
Give bare numbers, in ×10⁻⁴ /s.

Give K for all compounds that follow.
1. COc1ccn2c(c1)nc1c2c(=O)n(CC(C)C)c(=O)n1Cc1ccccc1
2. CCCn1c(=O)c2c(nc3cc(OC)ccn32)n(Cc2ccccc2)c1=O
3. COc1ccn2c(c1)nc1c2c(=O)n(CC(C)(C)C)c(=O)n1Cc1ccccc1

Reply text:
1. 2
2. 3.2
3. 1.1

* * *

Study System: Adenosine receptor A3 (Homo sapiens)
Sequence (whole entry): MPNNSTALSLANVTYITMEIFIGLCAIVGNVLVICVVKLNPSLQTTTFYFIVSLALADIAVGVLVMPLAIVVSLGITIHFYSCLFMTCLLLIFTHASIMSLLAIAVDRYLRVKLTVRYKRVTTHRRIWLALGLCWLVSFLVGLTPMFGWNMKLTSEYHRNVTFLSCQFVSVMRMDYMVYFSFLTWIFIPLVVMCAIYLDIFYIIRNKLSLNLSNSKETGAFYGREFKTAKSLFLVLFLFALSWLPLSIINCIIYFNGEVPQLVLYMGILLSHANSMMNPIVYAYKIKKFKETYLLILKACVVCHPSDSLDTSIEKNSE
Protocol: Displacement of [3H]PSB-11 from human adenosine A3 receptor expressed on CHO cell membranes assessed as kinetic rate index at IC50 measured after 240 mins by scintillation spectrometry
Metric Name: Activity index

Answered examples (2):
COc1ccn2c(c1)nc1c2c(=O)n(CC2CC2)c(=O)n1Cc1ccc(Br)cc1 : 1.19
COc1ccc(Cn2c(=O)n(CC3CC3)c(=O)c3c2nc2cc(OC)ccn23)cc1 : 1.39

Moving on to another molecule below.
Inquiry: In one line, give reported Activity index of the entry CCn1c(=O)c2c(nc3cc(OC)ccn32)n(Cc2ccccc2)c1=O .
Reply text: 0.8

* * *

Would you mind telling me the reported Activity index of each entry?
Study System: Adenosine receptor A3 (Homo sapiens)
Sequence (whole entry): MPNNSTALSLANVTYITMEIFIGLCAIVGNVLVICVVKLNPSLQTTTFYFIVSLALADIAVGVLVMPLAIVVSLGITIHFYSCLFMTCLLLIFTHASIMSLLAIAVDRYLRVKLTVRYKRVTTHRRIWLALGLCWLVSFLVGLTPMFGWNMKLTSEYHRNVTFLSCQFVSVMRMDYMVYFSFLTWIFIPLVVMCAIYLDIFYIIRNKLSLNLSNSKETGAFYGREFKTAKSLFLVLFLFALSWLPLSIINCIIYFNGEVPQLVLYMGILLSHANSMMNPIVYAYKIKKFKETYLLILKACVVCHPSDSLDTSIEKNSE
Protocol: Displacement of [3H]PSB-11 from human adenosine A3 receptor expressed on CHO cell membranes assessed as kinetic rate index at IC50 measured after 240 mins by scintillation spectrometry
Give bare numbers.

Answered examples (3):
COc1ccn2c(c1)nc1c2c(=O)n(CCC(C)(C)C)c(=O)n1Cc1ccccc1 : 0.95
COc1ccn2c(c1)nc1c2c(=O)n(CC2CC2)c(=O)n1Cc1ccc(Cl)cc1 : 1.11
C#CCn1c(=O)c2c(nc3cc(OC)ccn32)n(Cc2ccccc2)c1=O : 1.2

Give Activity index for all compounds that follow.
1. CCCCn1c(=O)c2c(nc3cc(OC)ccn32)n(Cc2ccccc2)c1=O
2. COc1ccn2c(c1)nc1c2c(=O)n(CCC(C)C)c(=O)n1Cc1ccccc1

Reply text:
[1.29, 1.39]

Data origin: ChEMBL document CHEMBL4017497
